# Firmness (kg) 4 weeks per entry
# Tested on: Vista Cherries
# test-details: Postharvest dips of compositions or individual components on Vista cherries; further: dipped 2.5 min
# Format: in vivo
# test-context: dipped […], concentration as printed per treatment; stored 4° C. in air
Dear colleague, please return just the value in kg, with no unit written.

>>> numeric_value("CC(C)=CCC/C(C)=C/CO [Geraniol]")
1.24
>>> numeric_value("CC(=O)OC/C=C(\\C)CCC=C(C)C [Geranyl Acetate]")
1.12
>>> numeric_value("c1ccc(CNc2ncnc3nc[nH]c23)cc1 [BA, benzyladenine]")
1.14

Look up Firmness (kg) 4 weeks for this compound: O=C1O[C@H]([C@@H](O)CO)C(O)=C1O [Ascorbic Acid]
1.12

Look up Firmness (kg) 4 weeks for this compound: Cc1c(C)c2c(c(C)c1O)CC[C@@](C)(CCC[C@H](C)CCC[C@H](C)CCCC(C)C)O2 [α-tocopherol]
1.12

Look up Firmness (kg) 4 weeks for this compound: [Ca+2].[Cl-].[Cl-] [CaCl2, calcium chloride]
1.09

Look up Firmness (kg) 4 weeks for this compound: CCCCCC=O [Hexanal]
1.16
